These entries and their values trace back to patent US20080075784A1.

- assay-explanation: β-cyclodextrin dissolution rate in deionized water by refractive index
- Format: physicochemical
- test-settings: time 3 min; 350 mg in 50 mL deionized water
assay-metric: β-Cyclodextrin Dissolved (%)
Write the number in % without appending the unit.

Solved entries (count: 3):
OC[C@H]1O[C@@H]2O[C@H]3[C@H](O)[C@@H](O)[C@@H](O[C@H]4[C@H](O)[C@@H](O)[C@@H](O[C@H]5[C@H](O)[C@@H](O)[C@@H](O[C@H]6[C@H](O)[C@@H](O)[C@@H](O[C@H]7[C@H](O)[C@@H](O)[C@@H](O[C@H]8[C@H](O)[C@@H](O)[C@@H](O[C@H]1[C@H](O)[C@H]2O)O[C@@H]8CO)O[C@@H]7CO)O[C@@H]6CO)O[C@@H]5CO)O[C@@H]4CO)O[C@@H]3CO [249 μm, β-cyclodextrin]; 42
OC[C@H]1O[C@@H]2O[C@H]3[C@H](O)[C@@H](O)[C@@H](O[C@H]4[C@H](O)[C@@H](O)[C@@H](O[C@H]5[C@H](O)[C@@H](O)[C@@H](O[C@H]6[C@H](O)[C@@H](O)[C@@H](O[C@H]7[C@H](O)[C@@H](O)[C@@H](O[C@H]8[C@H](O)[C@@H](O)[C@@H](O[C@H]1[C@H](O)[C@H]2O)O[C@@H]8CO)O[C@@H]7CO)O[C@@H]6CO)O[C@@H]5CO)O[C@@H]4CO)O[C@@H]3CO [57 μm, β-cyclodextrin]; 97
OC[C@H]1O[C@@H]2O[C@H]3[C@H](O)[C@@H](O)[C@@H](O[C@H]4[C@H](O)[C@@H](O)[C@@H](O[C@H]5[C@H](O)[C@@H](O)[C@@H](O[C@H]6[C@H](O)[C@@H](O)[C@@H](O[C@H]7[C@H](O)[C@@H](O)[C@@H](O[C@H]8[C@H](O)[C@@H](O)[C@@H](O[C@H]1[C@H](O)[C@H]2O)O[C@@H]8CO)O[C@@H]7CO)O[C@@H]6CO)O[C@@H]5CO)O[C@@H]4CO)O[C@@H]3CO [156 μm, β-cyclodextrin]; 96

// below: β-Cyclodextrin Dissolved (%) requested for another compound
In plain terms, OC[C@H]1O[C@@H]2O[C@H]3[C@H](O)[C@@H](O)[C@@H](O[C@H]4[C@H](O)[C@@H](O)[C@@H](O[C@H]5[C@H](O)[C@@H](O)[C@@H](O[C@H]6[C@H](O)[C@@H](O)[C@@H](O[C@H]7[C@H](O)[C@@H](O)[C@@H](O[C@H]8[C@H](O)[C@@H](O)[C@@H](O[C@H]1[C@H](O)[C@H]2O)O[C@@H]8CO)O[C@@H]7CO)O[C@@H]6CO)O[C@@H]5CO)O[C@@H]4CO)O[C@@H]3CO [116 μm, β-cyclodextrin] has a documented β-Cyclodextrin Dissolved (%) of 84

---

- assay-explanation: β-cyclodextrin dissolution rate in deionized water by refractive index
- Assay type: physicochemical
- test-settings: time 4 min; 350 mg in 50 mL deionized water
assay-metric: β-Cyclodextrin Dissolved (%)
Write the number in % without appending the unit.

In plain terms, OC[C@H]1O[C@@H]2O[C@H]3[C@H](O)[C@@H](O)[C@@H](O[C@H]4[C@H](O)[C@@H](O)[C@@H](O[C@H]5[C@H](O)[C@@H](O)[C@@H](O[C@H]6[C@H](O)[C@@H](O)[C@@H](O[C@H]7[C@H](O)[C@@H](O)[C@@H](O[C@H]8[C@H](O)[C@@H](O)[C@@H](O[C@H]1[C@H](O)[C@H]2O)O[C@@H]8CO)O[C@@H]7CO)O[C@@H]6CO)O[C@@H]5CO)O[C@@H]4CO)O[C@@H]3CO [183 μm, β-cyclodextrin] has a documented β-Cyclodextrin Dissolved (%) of 64

---

- assay-explanation: β-cyclodextrin dissolution rate in deionized water by refractive index
- Assay type: physicochemical
- test-settings: time 1 min; 350 mg in 50 mL deionized water
- Method: In this example, the amount of dissolved cyclodextrin provided by several different β-cyclodextrin samples with varying ranges of particle size was determined. Samples of β-cyclodextrin with average particle sizes ranging from 116 μm to 249 μm were obtained from Roquette America of Keokuk, Iowa. […] Volume weighted mean particle diameter in microns for each β-cyclodextrin sample was determined using a Horiba particle sizer. The dissolution rates of these samples were determined as follows. […]
assay-metric: β-Cyclodextrin Dissolved (%)
Write the number in % without appending the unit.

In plain terms, OC[C@H]1O[C@@H]2O[C@H]3[C@H](O)[C@@H](O)[C@@H](O[C@H]4[C@H](O)[C@@H](O)[C@@H](O[C@H]5[C@H](O)[C@@H](O)[C@@H](O[C@H]6[C@H](O)[C@@H](O)[C@@H](O[C@H]7[C@H](O)[C@@H](O)[C@@H](O[C@H]8[C@H](O)[C@@H](O)[C@@H](O[C@H]1[C@H](O)[C@H]2O)O[C@@H]8CO)O[C@@H]7CO)O[C@@H]6CO)O[C@@H]5CO)O[C@@H]4CO)O[C@@H]3CO [183 μm, β-cyclodextrin] has a documented β-Cyclodextrin Dissolved (%) of 45

---

- assay-explanation: β-cyclodextrin dissolution rate in deionized water by refractive index
- Assay type: physicochemical
- test-settings: time 4 min; 350 mg in 50 mL deionized water
assay-metric: β-Cyclodextrin Dissolved (%)
Write the number in % without appending the unit.

Solved entries (count: 3):
OC[C@H]1O[C@@H]2O[C@H]3[C@H](O)[C@@H](O)[C@@H](O[C@H]4[C@H](O)[C@@H](O)[C@@H](O[C@H]5[C@H](O)[C@@H](O)[C@@H](O[C@H]6[C@H](O)[C@@H](O)[C@@H](O[C@H]7[C@H](O)[C@@H](O)[C@@H](O[C@H]8[C@H](O)[C@@H](O)[C@@H](O[C@H]1[C@H](O)[C@H]2O)O[C@@H]8CO)O[C@@H]7CO)O[C@@H]6CO)O[C@@H]5CO)O[C@@H]4CO)O[C@@H]3CO [116 μm, β-cyclodextrin]; 88
OC[C@H]1O[C@@H]2O[C@H]3[C@H](O)[C@@H](O)[C@@H](O[C@H]4[C@H](O)[C@@H](O)[C@@H](O[C@H]5[C@H](O)[C@@H](O)[C@@H](O[C@H]6[C@H](O)[C@@H](O)[C@@H](O[C@H]7[C@H](O)[C@@H](O)[C@@H](O[C@H]8[C@H](O)[C@@H](O)[C@@H](O[C@H]1[C@H](O)[C@H]2O)O[C@@H]8CO)O[C@@H]7CO)O[C@@H]6CO)O[C@@H]5CO)O[C@@H]4CO)O[C@@H]3CO [57 μm, β-cyclodextrin]; 99
OC[C@H]1O[C@@H]2O[C@H]3[C@H](O)[C@@H](O)[C@@H](O[C@H]4[C@H](O)[C@@H](O)[C@@H](O[C@H]5[C@H](O)[C@@H](O)[C@@H](O[C@H]6[C@H](O)[C@@H](O)[C@@H](O[C@H]7[C@H](O)[C@@H](O)[C@@H](O[C@H]8[C@H](O)[C@@H](O)[C@@H](O[C@H]1[C@H](O)[C@H]2O)O[C@@H]8CO)O[C@@H]7CO)O[C@@H]6CO)O[C@@H]5CO)O[C@@H]4CO)O[C@@H]3CO [156 μm, β-cyclodextrin]; 92

// below: β-Cyclodextrin Dissolved (%) requested for another compound
In plain terms, OC[C@H]1O[C@@H]2O[C@H]3[C@H](O)[C@@H](O)[C@@H](O[C@H]4[C@H](O)[C@@H](O)[C@@H](O[C@H]5[C@H](O)[C@@H](O)[C@@H](O[C@H]6[C@H](O)[C@@H](O)[C@@H](O[C@H]7[C@H](O)[C@@H](O)[C@@H](O[C@H]8[C@H](O)[C@@H](O)[C@@H](O[C@H]1[C@H](O)[C@H]2O)O[C@@H]8CO)O[C@@H]7CO)O[C@@H]6CO)O[C@@H]5CO)O[C@@H]4CO)O[C@@H]3CO [249 μm, β-cyclodextrin] has a documented β-Cyclodextrin Dissolved (%) of 54

---

- assay-explanation: β-cyclodextrin dissolution rate in deionized water by refractive index
- Assay type: physicochemical
- test-settings: time 3 min; 350 mg in 50 mL deionized water
assay-metric: β-Cyclodextrin Dissolved (%)
Write the number in % without appending the unit.

In plain terms, OC[C@H]1O[C@@H]2O[C@H]3[C@H](O)[C@@H](O)[C@@H](O[C@H]4[C@H](O)[C@@H](O)[C@@H](O[C@H]5[C@H](O)[C@@H](O)[C@@H](O[C@H]6[C@H](O)[C@@H](O)[C@@H](O[C@H]7[C@H](O)[C@@H](O)[C@@H](O[C@H]8[C@H](O)[C@@H](O)[C@@H](O[C@H]1[C@H](O)[C@H]2O)O[C@@H]8CO)O[C@@H]7CO)O[C@@H]6CO)O[C@@H]5CO)O[C@@H]4CO)O[C@@H]3CO [183 μm, β-cyclodextrin] has a documented β-Cyclodextrin Dissolved (%) of 64
